FYI, the data here is from the supplement of paper PMC3334620.

Molecular target: Cin5 (UniProt P40917)
Sequence: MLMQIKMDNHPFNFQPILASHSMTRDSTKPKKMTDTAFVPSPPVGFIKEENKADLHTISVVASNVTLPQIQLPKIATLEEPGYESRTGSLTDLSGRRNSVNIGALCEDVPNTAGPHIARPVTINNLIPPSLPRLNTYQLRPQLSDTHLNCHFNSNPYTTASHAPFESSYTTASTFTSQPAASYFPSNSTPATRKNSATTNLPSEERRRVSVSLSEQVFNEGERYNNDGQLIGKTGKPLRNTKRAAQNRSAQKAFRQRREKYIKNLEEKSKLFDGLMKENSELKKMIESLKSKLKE
Experiment: PBM E-score (8-mer binding enrichment) (E-score (-0.5 to 0.5)); higher = stronger / more preferred TF binding
Conditions: protein concentration: 100 nM; construct: GST-full length
Whole data set: some 33,000 sequences, median “E-score (-0.5 to 0.5)” near -0.0059, cut for the highest 2% near 0.26. What follows is part of a selection rich in the highest values, with near analogues and random picks from the rest.
Threshold rule: PBM E-score greater than or equal to 0.1 is YES; below that, NO.

Decide: is the reported value of PBM E-score for AATTACGT equal to or greater than 0.1?
YES

Decide: is the reported value of PBM E-score for CTCGTAAG equal to or greater than 0.1?
YES

Decide: is the reported value of PBM E-score for CCATAAGA equal to or greater than 0.1?
YES

Decide: is the reported value of PBM E-score for CACGCGAC equal to or greater than 0.1?
NO

Decide: is the reported value of PBM E-score for CTAAGCTA equal to or greater than 0.1?
YES

Decide: is the reported value of PBM E-score for ACATAAGG equal to or greater than 0.1?
YES

Decide: is the reported value of PBM E-score for CCACGTAA equal to or greater than 0.1?
YES

Decide: is the reported value of PBM E-score for ATTCTTCG equal to or greater than 0.1?
YES

Decide: is the reported value of PBM E-score for ACACGTAG equal to or greater than 0.1?
NO

Decide: is the reported value of PBM E-score for AGAAGCGC equal to or greater than 0.1?
NO

Decide: is the reported value of PBM E-score for CCGTAAAC equal to or greater than 0.1?
NO

Decide: is the reported value of PBM E-score for CAGCTTAA equal to or greater than 0.1?
NO

Decide: is the reported value of PBM E-score for CAGCTTAC equal to or greater than 0.1?
YES

Decide: is the reported value of PBM E-score for CAGCTTGC equal to or greater than 0.1?
NO

Decide: is the reported value of PBM E-score for AAGCTTAA equal to or greater than 0.1?
YES

Decide: is the reported value of PBM E-score for GAGCTTAC equal to or greater than 0.1?
YES

Decide: is the reported value of PBM E-score for GGTTACAA equal to or greater than 0.1?
NO

Decide: is the reported value of PBM E-score for AGGCTTAC equal to or greater than 0.1?
YES

Decide: is the reported value of PBM E-score for ACATAACA equal to or greater than 0.1?
YES

Decide: is the reported value of PBM E-score for CGTAAAGC equal to or greater than 0.1?
NO

Decide: is the reported value of PBM E-score for AAGCTTAG equal to or greater than 0.1?
YES

Decide: is the reported value of PBM E-score for CGGCTTAC equal to or greater than 0.1?
YES

Decide: is the reported value of PBM E-score for GCTCAAAA equal to or greater than 0.1?
NO

Decide: is the reported value of PBM E-score for ACATAACC equal to or greater than 0.1?
YES

Decide: is the reported value of PBM E-score for AATTACAG equal to or greater than 0.1?
YES

Decide: is the reported value of PBM E-score for TCACGTAA equal to or greater than 0.1?
YES

Decide: is the reported value of PBM E-score for AATTACAT equal to or greater than 0.1?
YES

Decide: is the reported value of PBM E-score for AATTACAC equal to or greater than 0.1?
NO

Decide: is the reported value of PBM E-score for GTATAAGA equal to or greater than 0.1?
NO

Decide: is the reported value of PBM E-score for ACTTCTTG equal to or greater than 0.1?
NO

Decide: is the reported value of PBM E-score for AGGCTTAG equal to or greater than 0.1?
NO

Decide: is the reported value of PBM E-score for CGCATGAA equal to or greater than 0.1?
YES

Decide: is the reported value of PBM E-score for ACATAAGT equal to or greater than 0.1?
YES
